The following compounds each carry a recorded % Inhibition Factor Xa (100 µM) for Human factor Xa (Homo sapiens, UniProt P00742).
experimental-endpoint: % Inhibition Factor Xa (100 µM) (%)

{"compound": "Cc1c(Cl)nc(NCCc2ccccc2)c(=O)n1CC(=O)NCCc1ccncc1 [Example E-0002]", "experimental-endpoint": "% Inhibition Factor Xa (100 µM)", "unit-text": "%", "test-value": 0}
{"compound": "COc1ccc(-c2c(Cl)nc(NCCN3CCOCC3)c(=O)n2CC(=O)NCCc2ccncc2)cc1 [Example E-0039]", "experimental-endpoint": "% Inhibition Factor Xa (100 µM)", "unit-text": "%", "test-value": 1}
{"compound": "O=C(Cn1c(Cc2ccccc2)c(Cl)nc(NCCc2ccc(Cl)cc2)c1=O)NCCc1ccncc1 [Example E-0060]", "experimental-endpoint": "% Inhibition Factor Xa (100 µM)", "unit-text": "%", "test-value": 0}
{"compound": "O=C(Cn1c(-c2ccc3c(c2)OCO3)c(Cl)nc(NCc2ccncc2)c1=O)NCCc1ccncc1 [Example E-0048]", "experimental-endpoint": "% Inhibition Factor Xa (100 µM)", "unit-text": "%", "test-value": 0}
{"compound": "O=C(Cn1c(-c2ccccc2)c(Cl)nc(NCCN2CCOCC2)c1=O)NCCc1ccncc1 [Example E-0015]", "experimental-endpoint": "% Inhibition Factor Xa (100 µM)", "unit-text": "%", "test-value": 0}
{"compound": "O=C(Cn1c(-c2ccc(-c3ccccc3)cc2)c(Cl)nc(NCCN2CCOCC2)c1=O)NCCc1ccncc1 [Example E-0055]", "experimental-endpoint": "% Inhibition Factor Xa (100 µM)", "unit-text": "%", "test-value": 0}
{"compound": "O=C(Cn1c(-c2ccc(-c3ccccc3)cc2)c(Cl)nc(NCc2ccccc2)c1=O)NCCc1cccnc1 [Example E-0110]", "experimental-endpoint": "% Inhibition Factor Xa (100 µM)", "unit-text": "%", "test-value": 3}

###

# target-or-system: Human factor Xa (Homo sapiens, UniProt P00742)
# Sequence (P00742 235-488 limits assumed): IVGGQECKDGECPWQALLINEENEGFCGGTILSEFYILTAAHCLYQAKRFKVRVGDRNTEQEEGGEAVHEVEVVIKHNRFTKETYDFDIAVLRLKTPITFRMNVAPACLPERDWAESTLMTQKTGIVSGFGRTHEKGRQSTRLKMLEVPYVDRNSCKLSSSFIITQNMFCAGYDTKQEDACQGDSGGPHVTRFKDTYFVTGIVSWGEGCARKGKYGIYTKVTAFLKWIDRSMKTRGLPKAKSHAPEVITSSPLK
# Sequence (P00742 41-179 limits assumed): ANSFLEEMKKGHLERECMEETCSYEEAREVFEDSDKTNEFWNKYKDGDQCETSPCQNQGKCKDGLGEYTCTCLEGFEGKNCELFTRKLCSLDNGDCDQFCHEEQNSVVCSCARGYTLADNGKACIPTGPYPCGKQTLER
# experimental-details: Xa Assay
# condition-label: % inhibition at 30 µM
IC50 or % Inhibition Factor Xa (30 µM) vs 30%: less than gives Fulfilled; not less than gives Not fulfilled.

{"compound": "N=C(N)NCCNc1nc(Cl)c(-c2ccccc2)n(CC(=O)NCc2ccc(C(=N)N)cc2)c1=O [Example 48]", "group-label": "Fulfilled"}
{"compound": "N=C(N)c1ccc(CNC(=O)Cn2c(-c3cccc(Cl)c3)c(Cl)nc(NCc3ccccc3)c2=O)cc1 [1471-25]", "group-label": "Not fulfilled"}
{"compound": "N=C(N)c1ccc(CNC(=O)Cn2c(-c3ccccc3)c(Cl)nc(NCCCN)c2=O)cc1 [Example 45]", "group-label": "Fulfilled"}
{"compound": "N=C(N)c1ccc(CNC(=O)Cn2c(-c3ccccc3)c(Cl)nc(NC3CCS(=O)(=O)C3)c2=O)cc1 (centres unmarked) [1512-19]", "group-label": "Fulfilled"}
{"compound": "CC(C)Nc1nc(Cl)c(-c2cccc(C#N)c2)n(CC(=O)NCc2ccc(C(=N)N)cc2)c1=O [Example 17]", "group-label": "Not fulfilled"}

###

pIC50 reference
# target-or-system: TF-VIIa (Homo sapiens)
# Construct: 2nM recombinant human factor VIIa; purchased American Diagnostica, Greenwich CT; host or cells: soluble TF made in house in E. coli
# Sequence (P08709 213-466 limits assumed): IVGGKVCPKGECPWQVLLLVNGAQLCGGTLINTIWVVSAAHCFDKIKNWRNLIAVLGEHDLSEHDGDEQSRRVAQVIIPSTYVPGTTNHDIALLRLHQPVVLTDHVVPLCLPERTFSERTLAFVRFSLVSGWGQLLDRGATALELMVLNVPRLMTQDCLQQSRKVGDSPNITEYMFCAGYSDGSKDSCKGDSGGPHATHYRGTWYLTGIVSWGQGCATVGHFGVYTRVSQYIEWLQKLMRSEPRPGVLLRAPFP
# Sequence (P08709 61-212 limits assumed): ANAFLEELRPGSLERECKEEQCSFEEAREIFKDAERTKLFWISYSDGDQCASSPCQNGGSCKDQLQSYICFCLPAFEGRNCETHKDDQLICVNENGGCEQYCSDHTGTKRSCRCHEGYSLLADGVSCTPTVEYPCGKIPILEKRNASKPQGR
# Sequence (P13726 33-251 partner limits assumed): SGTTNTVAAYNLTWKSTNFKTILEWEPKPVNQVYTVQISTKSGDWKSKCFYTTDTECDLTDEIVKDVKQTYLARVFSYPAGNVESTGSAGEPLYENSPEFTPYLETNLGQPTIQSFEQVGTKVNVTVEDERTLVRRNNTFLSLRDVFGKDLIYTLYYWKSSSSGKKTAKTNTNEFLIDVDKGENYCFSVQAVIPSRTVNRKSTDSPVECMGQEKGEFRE
# experimental-details: TF-VIIa Assay
# Format: biochemical
# condition-label: cells given as a plain number (IC50); read-out: IC50 or % Inhibition TF-VIIa (30 µM)
pIC50: −log10 of the molar value.
experimental-endpoint: pIC50

{"compound": "N=C(N)c1ccc(CNC(=O)Cn2c(-c3cccc(N)c3)c(Cl)nc(NCCc3cccc(Cl)c3)c2=O)cc1 [compound 87]", "experimental-endpoint": "pIC50", "test-value": 7.15}
{"compound": "CC(C)Nc1nc(Cl)c(-c2cccc(N)c2)n(CC(=O)NCc2ccc(C(=N)N)s2)c1=O [Example 55]", "experimental-endpoint": "pIC50", "test-value": 6.82}
{"compound": "N=C(N)c1ccc(CNC(=O)Cn2c(-c3ccccc3)c(Cl)nc(NC3CCCCC3)c2=O)cc1 [1517-25]", "experimental-endpoint": "pIC50", "test-value": 5.85}
{"compound": "N=C(N)c1ccc(CNC(=O)Cn2c(-c3ccccc3)c(Cl)nc(NCCc3ccncc3)c2=O)cc1 [1471-13]", "experimental-endpoint": "pIC50", "test-value": 5.83}
